Target: Delta-type opioid receptor (Mus musculus, UniProt P32300)
Sequence (P32300 whole entry): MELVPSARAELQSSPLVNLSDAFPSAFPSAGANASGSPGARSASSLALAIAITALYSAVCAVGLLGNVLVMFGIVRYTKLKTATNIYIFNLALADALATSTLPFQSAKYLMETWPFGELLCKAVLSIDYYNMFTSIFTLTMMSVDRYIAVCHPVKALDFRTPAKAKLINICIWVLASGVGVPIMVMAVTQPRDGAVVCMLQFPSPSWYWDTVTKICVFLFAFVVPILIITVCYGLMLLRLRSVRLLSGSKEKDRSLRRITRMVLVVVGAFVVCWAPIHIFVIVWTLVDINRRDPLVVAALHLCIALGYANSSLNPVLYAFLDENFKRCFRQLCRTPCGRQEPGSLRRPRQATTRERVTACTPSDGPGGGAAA
Test: Binding affinity was measured in cloned Opioid receptor delta 1 expressed in CHO cells using [3H]- DPDPE as radioligand.
Square brackets hold non-standard residues; d marks the D form. Peptide text beside a SMILES is read from it. * marks the point of attachment. ξ: configuration not given here. Tyr(Nα,Nα-allyl2) = C=CCN(CC=C)[C@@H](Cc1ccc(O)cc1)C(=O)*; Phe(4-NH2) = Nc1ccc(C[C@H](N)C(=O)O)cc1; Aib = CC(C)(N)C(=O)O; BrAc = O=C(CBr)*; ξA = CC(N)C(=O)O
Catalogue of compounds with associated IC50
State the value, then name its unit.

Test system Delta-type opioid receptor (Mus musculus, UniProt P32300); read-out IC50; what value for CC(C)C[C@H](NC(=O)[C@H](Cc1ccc(N=C=S)cc1)NC(=O)CNC(=O)CNC(=O)[C@H](Cc1ccc(O)cc1)N(Cc1ccccc1)Cc1ccccc1)C(=O)O ?
34.9 nM

Please answer likewise for C=CCN(CC=C)[C@@H](Cc1ccc(O)cc1)C(=O)NC(C)C(=O)NC(C)C(=O)N[C@@H](Cc1ccc(NC(=O)CBr)cc1)C(=O)N[C@@H](CC(C)C)C(=O)O (stereo partly drawn) ({Tyr(Nα,Nα-allyl2)}-[ξA][ξA][Phe(4-NH2)](BrAc)L-OH)
392 nM

Please answer likewise for C=CCN(CC=C)[C@@H](Cc1ccc(O)cc1)C(=O)NC(C)(C)C(=O)NC(C)C(=O)N[C@@H](Cc1ccc(N)cc1)C(=O)N[C@@H](CC(C)C)C(=O)O (stereo partly drawn) ({Tyr(Nα,Nα-allyl2)}-[Aib][ξA][Phe(4-NH2)]L-OH)
1390 nM
